Every entry's value here was drawn from ChEMBL document CHEMBL1961873.

assayed_target: Serine/threonine-protein kinase D3 (Homo sapiens);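 also: values are mean inhibition figures against PRKD3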
condition_parameters: at 1 µM
# maps each entry to its inhibition
Reply with just the number (in %).

[[record]]
compound = "O=C(Nc1n[nH]c2nc(-c3ccc(O)cc3)c(Br)cc12)C1CC1"
reading = 6.49

[[record]]
compound = "Nc1nccc(-c2c(-c3ccc(F)cc3)ncn2C2CCC(O)CC2)n1 (stereo not given)"
reading = 19.4

[[record]]
compound = "COc1cc2ncn(-c3cc(OCc4cccs4)c(C(N)=O)s3)c2cc1OC"
reading = -2.04


Proceeding to the next compound to report its inhibition.
Quick one: inhibition of `NC(=O)Cc1ccccc1Oc1nccc(-c2c(-c3ccc(F)cc3)ncn2C2CCNCC2)n1` ?
8.49
